target-desc: Human TRPA1 (Homo sapiens)
Construct: expressed in transfected cells; host or cells: CHO cells
Sequence (O75762 whole entry): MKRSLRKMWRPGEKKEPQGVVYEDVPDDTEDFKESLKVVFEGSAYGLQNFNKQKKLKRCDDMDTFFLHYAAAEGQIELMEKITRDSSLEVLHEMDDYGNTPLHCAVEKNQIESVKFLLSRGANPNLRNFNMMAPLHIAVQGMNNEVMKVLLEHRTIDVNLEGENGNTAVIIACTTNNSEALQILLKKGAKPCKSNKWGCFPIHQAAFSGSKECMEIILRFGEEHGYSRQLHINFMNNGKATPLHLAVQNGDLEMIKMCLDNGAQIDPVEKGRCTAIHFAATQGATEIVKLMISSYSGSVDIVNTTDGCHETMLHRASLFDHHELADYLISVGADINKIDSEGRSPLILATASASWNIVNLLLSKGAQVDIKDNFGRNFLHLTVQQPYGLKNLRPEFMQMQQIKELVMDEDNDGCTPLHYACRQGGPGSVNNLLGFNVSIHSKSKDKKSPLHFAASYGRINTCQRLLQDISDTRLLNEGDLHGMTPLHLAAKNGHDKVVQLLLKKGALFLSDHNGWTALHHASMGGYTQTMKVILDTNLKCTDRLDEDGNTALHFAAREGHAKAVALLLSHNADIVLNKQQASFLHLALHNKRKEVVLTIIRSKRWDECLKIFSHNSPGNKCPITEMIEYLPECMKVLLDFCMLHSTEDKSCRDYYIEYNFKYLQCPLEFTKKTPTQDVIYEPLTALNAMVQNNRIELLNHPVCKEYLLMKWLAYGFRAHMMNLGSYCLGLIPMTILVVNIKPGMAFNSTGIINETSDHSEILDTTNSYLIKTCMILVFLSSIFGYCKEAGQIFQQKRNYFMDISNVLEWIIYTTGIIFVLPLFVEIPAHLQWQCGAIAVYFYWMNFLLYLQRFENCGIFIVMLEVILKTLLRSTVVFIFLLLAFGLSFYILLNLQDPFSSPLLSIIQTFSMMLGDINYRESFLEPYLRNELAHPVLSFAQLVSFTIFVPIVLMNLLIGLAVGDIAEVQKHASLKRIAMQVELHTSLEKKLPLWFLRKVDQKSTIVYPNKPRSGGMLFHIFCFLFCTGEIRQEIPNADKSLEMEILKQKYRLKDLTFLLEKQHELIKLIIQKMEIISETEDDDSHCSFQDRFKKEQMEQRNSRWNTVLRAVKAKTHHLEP
measurement-description: 45Calcium uptake assay: inhibition of AITC induced cellular uptake of radioactive calcium
Type: cell-based
measurement-context: 1.0 μM test compound; AITC (30 μM) induced 45Ca uptake; Human TRPA1 expressing CHO cells; read-out: Percentage inhibition at 1.0 μM
Decide using inhibition at 1 µM: a value greater than or equal to 70% is Fulfilled, a smaller one is Not fulfilled.

Example results:
Is the recorded value of inhibition at 1 µM equal to or greater than 70% for this molecule? `Cn1c(=O)c2c(ccn2CC(=O)Nc2nc(-c3cc(Cl)c(OCCC(F)(F)C(F)(F)F)c(Cl)c3)cs2)n(C)c1=O`
Fulfilled

Hi, just wondering whether `Cn1c(=O)c2c(CC(=O)Nc3nc(-c4cc(F)c(OCC(C)(C)C)c(F)c4)cs3)cn(C)c2n(C)c1=O` shows inhibition at 1 µM of 70% or higher.
Not fulfilled

Quick check: does `CC(C)COc1c(Cl)cc(-c2csc(NC(=O)Cn3ncc4c3c(=O)n(C)c(=O)n4C)n2)cc1Cl` have inhibition at 1 µM greater than or equal to 70%?
Fulfilled

Reported inhibition at 1 µM at or above 70%? `Cn1c(=O)c2c(ccn2CC(=O)Nc2nc(-c3cc(F)c(OCc4ccccc4C(F)(F)F)c(F)c3)cs2)n(C)c1=O`
Not fulfilled

Does the reported inhibition at 1 µM for `Cc1cc2c(c(=O)n(C)c(=O)n2C)n1CC(=O)Nc1nc(-c2ccc(C(F)(F)F)c(F)c2)cs1` fall at or above the 70% mark?
Fulfilled

Does the molecule `Cn1c(=O)c2c(ccn2CC(=O)Nc2nc(-c3cc(F)c(OC(F)F)c(F)c3)cs2)n(C)c1=O` have recorded inhibition at 1 µM that is 70% or more?
Fulfilled

Does `Cc1cc2c(c(=O)n(C)c(=O)n2C)n1CC(=O)Nc1cc(-c2ccc(Br)cc2)on1` have a reported inhibition at 1 µM of at least 70%?
Not fulfilled

Does `Cn1c(=O)c2c(cnn2CC(=O)Nc2nc(-c3cc(F)c(OC(F)F)c(F)c3)cs2)n(C)c1=O` have a reported inhibition at 1 µM of at least 70%?
Fulfilled

***
In plain terms: is recorded inhibition at 1 µM at least 70% for `CN(C)Cc1cn(CC(=O)Nc2nc(-c3ccc(C(F)(F)F)c(F)c3)cs2)c2c(=O)n(C)c(=O)n(C)c12` ?
Not fulfilled

I'd appreciate it if you could say whether `Cn1c(=O)c2c(cnn2CC(=O)Nc2nc(-c3ccc(OCC(C)(C)C)c(Cl)c3)cs2)n(C)c1=O` has inhibition at 1 µM at least equal to 70%.
Fulfilled

Exam item: decide whether the reported inhibition at 1 µM for `Cn1c(=O)c2c(ccn2CC(=O)Nc2nc(-c3cc(Cl)c(OCCC(F)(F)F)c(Cl)c3)cs2)n(C)c1=O` is at least 70%.
Fulfilled

Does the molecule `Cc1cc2c(c(=O)n(C)c(=O)n2C)n1CC(=O)Nc1nc(-c2ccc(OCC(C)(C)C)c(F)c2)cs1` have recorded inhibition at 1 µM that is 70% or more?
Fulfilled

Threshold query (inhibition at 1 µM >= 70%) on `Cn1c(=O)c2c(ccn2CC(=O)Nc2nc(-c3ccc(F)cc3F)cs2)n(C)c1=O`
Not fulfilled

Would you say `Cc1cc2c(c(=O)n(C)c(=O)n2C)n1CC(=O)Nc1nc(-c2ccc(OCC(C)(C)C)c(Cl)c2)cs1` shows inhibition at 1 µM at minimum 70%?
Fulfilled

Data credit: patent US9000159B2
